conditions: in water, 333.15 K
quantity: solubility (mole fraction)
Keep the answer to the number alone.

According to the records, this molecule COc1cc(C2Oc3cc(C4Oc5cc(O)cc(O)c5C(=O)C4O)ccc3OC2CO)ccc1O (stereo unspecified) displays solubility (mole fraction) of 3.06e-05

---

details: in PEG-400, 298.15 K
quantity: solubility (mole fraction)
Reply: number alone, nothing else.

Memo: COc1cc(C2Oc3cc(C4Oc5cc(O)cc(O)c5C(=O)C4O)ccc3OC2CO)ccc1O (stereo unspecified) , reported solubility (mole fraction): 0.24

---

conditions: in PEG-400, 333.15 K
quantity: solubility (mole fraction)
Kindly provide the number alone.

Data point: COc1cc(C2Oc3cc(C4Oc5cc(O)cc(O)c5C(=O)C4O)ccc3OC2CO)ccc1O (stereo unspecified) ; solubility (mole fraction) = 0.38

---

settings: in water, 313.15 K
quantity: solubility (mole fraction)
Kindly provide the number alone.

Lookup result for COc1cc(C2Oc3cc(C4Oc5cc(O)cc(O)c5C(=O)C4O)ccc3OC2CO)ccc1O (stereo unspecified) ; measured solubility (mole fraction): 2.09e-05

---

conditions: in isopropanol, 323.15 K
quantity: solubility (mole fraction)
Keep the answer to the number alone.

# solubility (mole fraction) of COc1cc(C2Oc3cc(C4Oc5cc(O)cc(O)c5C(=O)C4O)ccc3OC2CO)ccc1O (stereo unspecified) = 0.00593

---

settings: in isopropanol, 313.15 K
quantity: solubility (mole fraction)
// return just the number, without any unit appended

The molecule identified as COc1cc(C2Oc3cc(C4Oc5cc(O)cc(O)c5C(=O)C4O)ccc3OC2CO)ccc1O (stereo unspecified) registered its solubility (mole fraction) at 0.00524
